The origin of these recorded values is the supplement of paper PMC11577813.

System: lanierone-responsive B-neuron OSN class (ItypOR36)
Assay: net action potential response of lanierone B-neuron (blank-subtracted) (spikes/s (Hz)); higher = stronger excitation
Conditions: co-localized A-neuron class: myrcene; 10 µg on filter paper; neuron: B neuron (small spike amplitude)
Overview of reported net action potential response across a group of molecules:
Form rule: numeric answer, no unit written next to it.

molecule	net action potential response
C=CC(O)CCCCC (racemic) [(±)-1-Octen-3-ol]	4
C=CC(=C)CC(O)C=C(C)C (racemic) [(±)-Ipsdienol]	-4

Consider C=CC(=C)C[C@@H](O)CC(C)C (racemic) [(±)-Ipsenol] . Its measured net action potential response is -4

Consider C=C1CCC2(C(C)C)CC12 (racemic) [(±)-Sabinene] . Its measured net action potential response is -4

Consider CCC/C=C\CO . Its measured net action potential response is 6

Consider CC(C)CCO . Its measured net action potential response is -6

Consider CC(=O)c1ccccc1 . Its measured net action potential response is 4

Consider CCC/C=C/C=O [(E)-hex-2-enal] . Its measured net action potential response is -6

Consider C=CC(C)(C)O . Its measured net action potential response is 4

Consider CC1=CCC2CC1C2(C)C (stereo not drawn) [(+)-α-Pinene] . Its measured net action potential response is -4
